src = patent US12319689B2

System: RS4;11 cells
measurement description: Inhibition of proliferation of RS4;11 human acute lymphocytic leukemia cells (CCK-8)
Type: cell-based
condition notes: 72 h compound exposure, CCK-8, 5% serum
Measured IC50, listed per entry.

Reference set (5 entries):
Cc1cc(C(F)(F)F)ccc1C1=C(CN2CCN(c3ccc(C(=O)NS(=O)(=O)c4ccc(NC[C@H]5COCCO5)c([N+](=O)[O-])c4)c(Oc4cnc5[nH]ccc5c4)c3)CC2)CCC(C)(C)C1    1.9 nM
Cc1cc(C(F)(F)F)ccc1C1=C(CN2CCN(c3ccc(C(=O)NS(=O)(=O)c4ccc(NC[C@H]5CN(S(C)(=O)=O)CCO5)c([N+](=O)[O-])c4)c(Oc4cnc5[nH]ccc5c4)c3)CC2)CCC(C)(C)C1    2.2 nM
CC(=O)N1CCO[C@H](CNc2ccc(S(=O)(=O)NC(=O)c3ccc(N4CCN(CC5=C(c6ccc(C(F)(F)F)cc6C)CC(C)(C)CC5)CC4)cc3Oc3cnc4[nH]ccc4c3)cc2[N+](=O)[O-])C1    3.4 nM
CC(=O)N1CCO[C@@H](CNc2ccc(S(=O)(=O)NC(=O)c3ccc(N4CCN(CC5=C(c6ccc(C(F)(F)F)cc6C)CC(C)(C)CC5)CC4)cc3Oc3cnc4[nH]ccc4c3)cc2[N+](=O)[O-])C1    5.5 nM
Cc1cc(C(F)(F)F)ccc1C1=C(CN2CCN(c3ccc(C(=O)NS(=O)(=O)c4ccc(NC[C@@H]5CN(C(=O)C(C)C)CCO5)c([N+](=O)[O-])c4)c(Oc4cnc5[nH]ccc5c4)c3)CC2)CCC(C)(C)C1    5.5 nM

Problem: Return IC50 (reported value) for this molecule: Cc1cc(C(F)(F)F)ccc1C1=C(CN2CCN(c3ccc(C(=O)NS(=O)(=O)c4ccc(NC[C@@H]5COCCO5)c([N+](=O)[O-])c4)c(Oc4cnc5[nH]ccc5c4)c3)CC2)CCC(C)(C)C1
Result: 4.2 nM

Problem: Return IC50 (reported value) for this molecule: Cc1cc(C(F)(F)F)ccc1C1=C(CN2CCN(c3ccc(C(=O)NS(=O)(=O)c4ccc(NCC5CCOCC5)c([N+](=O)[O-])c4)c(Oc4cnc5[nH]ccc5c4)c3)CC2)CCC(C)(C)C1
Result: 3.9 nM

Problem: Return IC50 (reported value) for this molecule: COCC(=O)N1CCO[C@@H](CNc2ccc(S(=O)(=O)NC(=O)c3ccc(N4CCN(CC5=C(c6ccc(C(F)(F)F)cc6C)CC(C)(C)CC5)CC4)cc3Oc3cnc4[nH]ccc4c3)cc2[N+](=O)[O-])C1
Result: 5.4 nM

Problem: Return IC50 (reported value) for this molecule: Cc1cc(C(F)(F)F)ccc1C1=C(CN2CCN(c3ccc(C(=O)NS(=O)(=O)c4ccc(NC[C@@H]5CN(S(C)(=O)=O)CCO5)c([N+](=O)[O-])c4)c(Oc4cnc5[nH]ccc5c4)c3)CC2)CCC(C)(C)C1
Result: 2.5 nM
